# System: Jurkat cells
# test: Tacrolimus dose response of FKBP13-AcGFP-mCherry constructs stably transduced into Jurkat cells, GFP MFI by flow cytometry
# Assay type: cell-based
# conditions: tacrolimus; FIG. 35
Could you label it Criterion met if measured Peak is 4000 or higher, and Criterion not met otherwise?

molecule | assigned.class
FKBP-278: FKBP13 DRD-AcGFP construct of Table 10 (protein, Description of sequence: Construct Name: FKBP-278; Mutation(s): Q72R Q74R Q84E A117W V85R E130F) HCPIKSRKGDVLHMHYTGKLEDGTEFDSSLPRNRPFVFSLGTGERIKGWDQGLLGMCEGEKRKLVIPSELGYGERGWPPKIPGGATLVFFVELLKIER | Criterion not met
FKBP-251: combinatorial FKBP13 mutant construct of Table 10 (protein, Description of sequence: Construct Name: FKBP-251; Mutation(s): Q72R Q84E A117W V85R DRD E130F) HCPIKSRKGDVLHMHYTGKLEDGTEFDSSLPRNQPFVFSLGTGERIKGWDQGLLGMCEGEKRKLVIPSELGYGERGWPPKIPGGATLVFFVELLKIER | Criterion met
FKBP-117: FKBP13 DRD Q72R, Q84E, A117W, V85R; SEQ ID NO: 67 (protein, Description of sequence: FKBP13-AcGFP-mCherry Fusion; Construct Name: FKBP-117; FKBP13 DRD in Construct : FKBP13 (mutated to match FKBP12 active site Q72R Q84E A117W) (DRD V85R)) HCPIKSRKGDVLHMHYTGKLEDGTEFDSSLPRNQPFVFSLGTGERIKGWDQGLLGMCEGEKRKLVIPSELGYGERGWPPKIPGGATLVFEVELLKIER | Criterion met
FKBP-276: FKBP13 DRD-AcGFP construct of Table 10 (protein, Description of sequence: Construct Name: FKBP-276; Mutation(s): Q72R Q74R Q84E A117W V85R) HCPIKSRKGDVLHMHYTGKLEDGTEFDSSLPRNRPFVFSLGTGERIKGWDQGLLGMCEGEKRKLVIPSELGYGERGWPPKIPGGATLVFEVELLKIER | Criterion not met
FKBP-195: combinatorial FKBP13 mutant construct of Table 10, carries K135Y (protein, Description of sequence: Construct Name: FKBP-195; Mutation(s): Q72R Q84E A117W V85R DRD K135Y) HCPIKSRKGDVLHMHYTGKLEDGTEFDSSLPRNQPFVFSLGTGERIKGWDQGLLGMCEGEKRKLVIPSELGYGERGWPPKIPGGATLVFEVELLYIER | Criterion met

Please find the next molecule below.
Input line: Confirm if Peak reported for the molecule FKBP-279: FKBP13 DRD-AcGFP construct of Table 10 (protein, Description of sequence: Construct Name: FKBP-279; Mutation(s): Q72R Q74R Q84E A117W V85R K120I) HCPIKSRKGDVLHMHYTGKLEDGTEFDSSLPRNRPFVFSLGTGERIKGWDQGLLGMCEGEKRKLVIPSELGYGERGWPPIIPGGATLVFEVELLKIER is 4000 or above.
Output line: Criterion not met
